B1: CPEB3 Ribozyme (parent)
chain: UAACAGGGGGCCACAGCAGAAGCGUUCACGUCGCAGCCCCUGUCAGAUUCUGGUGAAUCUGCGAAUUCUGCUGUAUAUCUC

Variants of: B1
methodNotes: self-cleavage, relative activity (ratio to wild type); higher = more cleavage; in vitro, sequencing
Binary call on self-cleavage: 1 (yes) from 0.2 upward, 0 (no) beneath that.

>  <seqText>
UAACAGGGGGCCACAGCAGAAGCGUUCACCUCGCAGCCCCUGUCAGAUUCUGGUGAAUCAGCGAAUUCUGCUGUAUAUCUC [G30C U60A]

>  <classification>
0 (no)

$$$$
>  <seqText>
UAACAGGGGGCCCCAGCAGAAGCGUUCACGUCGCAGCCCCUGUCAGAUUCUGGUGAUUCUGCGAAUUCUGCUGUAUAUCUC [A13C A57U]

>  <classification>
1 (yes)

$$$$
>  <seqText>
UAACAGGGGGCCACAGCAGAAGCGUUCACGUCGCAGCCCCUGUCAGAUUCUGGUGAAUCUGCGACUUCUGCUGUAUGUCUC [A65C A77G]

>  <classification>
0 (no)

$$$$
>  <seqText>
UAACAGGGGGCCACAGCAGAAGCGUUCUCGUCGCAGCCCCUGUCAGAUUCUGGUGAAUCUGCGAAUUCUGCUGUACAUCUC [A28U U76C]

>  <classification>
1 (yes)

$$$$
>  <seqText>
UAACAGGUGGCCACAGCAGAAGCGUUCUCGUCGCAGCCCCUGUCAGAUUCUGGUGAAUCUGCGAAUUCUGCUGUAUAUCUC [G8U A28U]

>  <classification>
0 (no)

$$$$
>  <seqText>
UGACAGGGGGCCACAGCAGAAGCGUUCACGUCGCAGCCCCUGUCAGAUUCUGGUGAAUCUGCGAAUUCUGUUGUAUAUCUC [A2G C71U]

>  <classification>
1 (yes)

$$$$
>  <seqText>
UAACAGGGGGCCACAGCAGAAGCAUUCACGUCGCAGCCCCUGUCAGAUUCUGGUGAAUCUGCGAAUUCUGCUGUAUUUCUC [G24A A77U]

>  <classification>
1 (yes)

$$$$
>  <seqText>
UAACAGGGGGCCACAGCAGAAGCGUUCACGCCGCAGCCCCUGUCAGAUUCUGGGGAAUCUGCGAAUUCUGCUGUAUAUCUC [U31C U54G]

>  <classification>
1 (yes)

$$$$
>  <seqText>
UAACAGGGGGCCACAGCAGAAGCGUUCACGUCGCAGCUCCUGUCAGAUUCUGGUGAAUCUGCGAAUUCUUCUGUAUAUCUC [C38U G70U]

>  <classification>
1 (yes)

$$$$
>  <seqText>
UAACAGGGGGCCACAGCAGAAGCAUUCACGUCGCAACCCCUGUCAGAUUCUGGUGAAUCUGCGAAUUCUGCUGUAUAUCUC [G24A G36A]

>  <classification>
0 (no)

$$$$
>  <seqText>
UAACAGGGGGCCACAGCAGAAGCGUUCACGUCGCAGCCCCUGUCAGAUUCUGGUGAAUCUGCGAAUGCUGCUGCAUAUCUC [U67G U74C]

>  <classification>
1 (yes)

$$$$
>  <seqText>
UAACAGGGGGCCACAGCAGGAGCGUUCACGUCGCAGCCCCUGUCAGAUUCUGGUGAAUCUGCGGAUUCUGCUGUAUAUCUC [A20G A64G]

>  <classification>
1 (yes)

$$$$
>  <seqText>
UGACAGGGGGCCACAGCAGAAGCGUUCACGUCGCAGCCCCUGUCAGAUUCCGGUGAAUCUGCGAAUUCUGCUGUAUAUCUC [A2G U51C]

>  <classification>
1 (yes)

$$$$
>  <seqText>
UAACAGGGGGCCACAGCAGAAGCGUUCACGUCGCACCCCCUGUCAGACUCUGGUGAAUCUGCGAAUUCUGCUGUAUAUCUC [G36C U48C]

>  <classification>
1 (yes)

$$$$
>  <seqText>
UAACAGGAGGCCACAGCAGAAGCGUUCACGUCGCAGACCCUGUCAGAUUCUGGUGAAUCUGCGAAUUCUGCUGUAUAUCUC [G8A C37A]

>  <classification>
0 (no)

$$$$
>  <seqText>
UAACAGGGGGCCACAGCAGACGCGUUCACGUCGCAGCCCCUGUCAGAUGCUGGUGAAUCUGCGAAUUCUGCUGUAUAUCUC [A21C U49G]

>  <classification>
0 (no)

$$$$
>  <seqText>
UAACAGUGGGCCACAGCAGAAGCGUUCACGUCGCAGCCCCUGUCAGAUUCUGGUGAAUCUGCGAAUUCUGCUGUUUAUCUC [G7U A75U]

>  <classification>
0 (no)

$$$$
>  <seqText>
UAACAGGGCGCCACAGCAGAAGCGUUCACGUCGCAGCCCCUGUCAGAUUCUGGUGAAUCUGCGAAUCCUGCUGUAUAUCUC [G9C U67C]

>  <classification>
0 (no)

$$$$
>  <seqText>
UAACAGGGGGCCACAGCACAAGCGUUCUCGUCGCAGCCCCUGUCAGAUUCUGGUGAAUCUGCGAAUUCUGCUGUAUAUCUC [G19C A28U]

>  <classification>
0 (no)

$$$$
>  <seqText>
UAACAGGGGGCCACAGCAGAAGCGUUCACGUCGCAGCCCCUGUCGGAUUCUGGUGAAUCUGCGAAUUCUUCUGUAUAUCUC [A45G G70U]

>  <classification>
1 (yes)

$$$$
>  <seqText>
UAACAGGGGGCCACAGCAGAAGCGUUCACGUCGCAGCCCUUGUCAGACUCUGGUGAAUCUGCGAAUUCUGCUGUAUAUCUC [C40U U48C]

>  <classification>
1 (yes)

$$$$
>  <seqText>
UAACAGGGGGCCACAGCAGAAGCGUUCACGUCGCAGCCCCUGUCAGACUCUGGUGAUUCUGCGAAUUCUGCUGUAUAUCUC [U48C A57U]

>  <classification>
1 (yes)

$$$$

Values were extracted from the RNAGym collection of RNA variant scans (doi:10.1093/nar/gkz1192).
